subject.of.test: ACE (Oryctolagus cuniculus, UniProt P12822)
Construct: purchased Sigma (St. Louis, MO, USA)
Sequence (P12822 34-1310): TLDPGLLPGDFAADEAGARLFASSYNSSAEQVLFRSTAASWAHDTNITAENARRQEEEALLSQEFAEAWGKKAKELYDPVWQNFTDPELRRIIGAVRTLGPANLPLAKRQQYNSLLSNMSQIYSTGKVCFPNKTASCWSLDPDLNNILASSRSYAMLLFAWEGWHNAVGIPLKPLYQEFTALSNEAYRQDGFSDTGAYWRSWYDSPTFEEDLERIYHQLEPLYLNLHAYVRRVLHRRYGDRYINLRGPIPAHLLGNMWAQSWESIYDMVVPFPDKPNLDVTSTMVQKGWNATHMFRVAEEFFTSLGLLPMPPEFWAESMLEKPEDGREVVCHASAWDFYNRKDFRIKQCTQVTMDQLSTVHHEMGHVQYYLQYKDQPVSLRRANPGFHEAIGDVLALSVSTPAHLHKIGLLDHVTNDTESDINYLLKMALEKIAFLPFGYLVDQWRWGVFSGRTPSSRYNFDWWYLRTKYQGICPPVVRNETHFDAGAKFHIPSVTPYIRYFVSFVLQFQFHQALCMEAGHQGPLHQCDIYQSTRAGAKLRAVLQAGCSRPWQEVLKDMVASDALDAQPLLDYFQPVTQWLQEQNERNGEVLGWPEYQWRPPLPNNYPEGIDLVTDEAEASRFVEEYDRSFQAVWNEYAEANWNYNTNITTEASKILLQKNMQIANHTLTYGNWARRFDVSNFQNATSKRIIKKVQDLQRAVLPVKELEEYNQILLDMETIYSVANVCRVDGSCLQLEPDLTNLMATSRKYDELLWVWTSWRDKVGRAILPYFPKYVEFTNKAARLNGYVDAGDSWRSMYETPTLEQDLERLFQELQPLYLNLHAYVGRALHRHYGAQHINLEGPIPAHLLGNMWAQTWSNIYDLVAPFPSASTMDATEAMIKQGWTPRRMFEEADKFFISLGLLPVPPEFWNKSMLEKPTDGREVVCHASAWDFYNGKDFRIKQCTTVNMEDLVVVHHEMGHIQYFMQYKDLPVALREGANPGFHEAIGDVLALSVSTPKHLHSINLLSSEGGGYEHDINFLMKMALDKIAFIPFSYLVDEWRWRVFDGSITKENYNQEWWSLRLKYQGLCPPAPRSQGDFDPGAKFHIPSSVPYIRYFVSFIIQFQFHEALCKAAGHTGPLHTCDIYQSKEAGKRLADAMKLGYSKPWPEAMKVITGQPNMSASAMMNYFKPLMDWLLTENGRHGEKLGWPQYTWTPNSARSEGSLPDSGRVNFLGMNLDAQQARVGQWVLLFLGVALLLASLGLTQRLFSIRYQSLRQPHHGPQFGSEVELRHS
assay.summary: ACE inhibition capacity (HHL substrate, hippuric acid at 228 nm)
Assay type: biochemical
stated.conditions: synthesized peptide; ACE 25 mU, HHL 8.3 mmol/L, 37 °C, 60 min, absorbance 228 nm; from regression of inhibition vs concentration; n at least 3; read-out: ACE-inhibitory activity (IC50)
pIC50: −log10 of the molar value. Where no end group is shown, it is not given here.
readout.label: pIC50

QYVPF [QYVPF, Gln-Tyr-Val-Pro-Phe] ... 3.61
GYHGH [GYHGH, Gly-Tyr-His-Gly-His] ... 3.49
